- System: SF-539
- Procedure Text: NCI tumour cell line growth inhibition, 48 h
Active and inactive are the calls of the source. Cut-off read from the data, not from the text of the source: active = GI50 up to about 1.1 µM and inactive = higher.
Property: GI50

{"Molecule": "CSC1=C(SC)C(=O)c2cn(C)c(=O)cc2C1=O", "GI50": "9.82 µM (inactive)"}
{"Molecule": "Oc1nc2c(c(-c3ccccc3Cl)n1)COC/C2=C\\c1ccccc1Cl", "GI50": "> 100 µM (inactive)"}
{"Molecule": "O=C1C2SC34c5c2c2ccccc2n5CCC3CCCN14 (stereo unspecified)", "GI50": "> 100 µM (inactive)"}

*Q* Give GI50 for the following molecule: O=C1OC(C2Cc3ccc4c(c3C2=O)CCC4)c2ccccc21 (stereo unspecified)
*A* 28.2 µM (inactive)

*Q* Give GI50 for the following molecule: Cc1nc2c(=O)[nH]c(=O)nc-2n(CCO)c1C
*A* > 100 µM (inactive)

*Q* Give GI50 for the following molecule: Cc1ccc(C=C(C(=O)O)C(=O)O)o1
*A* > 100 µM (inactive)
